Listed variants paired with reported protein stability index
B1: PTPRD (parent)
chain: FICQATGDPRPKIVWNKKGKKVSN

Variants of: B1
Test Description: protein stability index of a GFP-peptide fusion (GPS, HEK-293T) (PSI 1-6); higher = more stable;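 further: lentivirally expressed fusions sorted by FACS into six bins by GFP to DsRed ratio, PSI derived from sequencing read proportions per bin multiplied by bin number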
Measurement Context: c terminus: a fixed tail appended
Readout Kind: protein stability index

- I13S: 1.52
- G7P: 2.32
- A5D: 2.39
- Q4A: 1.61
- V22D: 2.86
- R10P: 2.41
- P9F: 1.99
- W15D: 2.73
- V22Q: 2.47
- N24D: 2.05
- V22T: 2.29
- V22R: 2.04
- K21G: 1.9
- I13Q: 2.02
- G7H: 2.16
- K21Q: 1.77
- I13T: 1.73
- V14Q: 2.01
- N16S: 2.24
- P11A: 2.34
- N24Q: 2.02
- A5W: 2.35
